Assay: Distribution coefficient Log D of compound at pH 7.4
Format: physicochemical
Settings: octanol/water
Field: logD. Provide a value for each of the compounds that follow.
Response field accepts a number only; no unit should be typed.

**Q:** Consider the compound shown here: Cn1cc(C#N)c2ccccc21 What is its recorded logD?
**A:** 2.3

**Q:** What value of logD has been reported for the following compound? c1ccc2c(-c3ccncc3)c[nH]c2c1
**A:** 2.81

**Q:** I would be grateful if you could share the reported logD for O=C(NOCc1ccccc1)Nc1ccc2c(-c3ccncc3)c[nH]c2c1 .
**A:** 3.54

**Q:** Give its logD value. Item: Cn1cc(C#N)c2ccc(NC(=O)NOCc3ccccc3)cc21
**A:** 2.74

**Q:** Need logD, item O=S(=O)(Nc1ccc2c(-c3ccncc3)c[nH]c2c1)c1ccccc1
**A:** 2.01

**Q:** Report logD for CN(C(=O)Nc1ccc2c(-c3ccncc3)c[nH]c2c1)c1ccccc1 please.
**A:** 2.93

###

Answer each item with its documented solubility.
Test: Aqueous solubility at pH 5
Type: physicochemical
Report only the number, with the unit µg/mL understood.

**Q:** Which solubility is listed for O=S(=O)(Nc1ccc2c(-c3ccncc3)c[nH]c2c1)c1ccccc1 ?
**A:** 8

**Q:** solubility for O=C(NOCc1ccccc1)Nc1ccc2c(-c3ccncc3)c[nH]c2c1 ?
**A:** 17.5

**Q:** Consider the compound Cn1cc(C#N)c2ccc(NC(=O)NOCc3ccccc3)cc21 and give its measured solubility.
**A:** 4.5

**Q:** # lookup: solubility of CN(C(=O)Nc1ccc2c(-c3ccncc3)c[nH]c2c1)c1ccccc1
**A:** 42

###

Biological target: UniProt:P12268
Test: Inhibition of IMPDH2
measured.attribute: pIC50
# pIC50 = -log10(concentration in molar units)

**Q:** // map CN(C(=O)Nc1cccc2c(C#N)cn(C)c12)c1ccccc1 to recorded pIC50 (system: UniProt:P12268)
**A:** 5.11

**Q:** Lab request: please report pIC50 under test system UniProt:P12268 for O=S(=O)(Nc1cccc2c(-c3ccncc3)c[nH]c12)c1ccccc1
**A:** 5.21

**Q:** Notebook: pull reported pIC50 for UniProt:P12268, entry O=S(=O)(Nc1ccc2c(-c3ccncc3)c[nH]c2c1)c1ccccc1
**A:** 6.44

**Q:** Give pIC50 (UniProt:P12268) of the following compound: Cn1cc(C#N)c2cccc(Nc3nc4ccccc4o3)c21
**A:** 4.23

**Q:** Missing value: pIC50, UniProt:P12268, entry CN(C(=O)Nc1ccc2c(C#N)cn(C)c2c1)c1ccccc1 . Fill in?
**A:** 4.77

**Q:** Give pIC50 (UniProt:P12268) of the following compound: O=C(NOCc1ccccc1)Nc1cccc2c(-c3ccncc3)c[nH]c12
**A:** 5.87

###

Field: solubility. Provide a value for each of the molecules that follow.
Assay: Aqueous solubility at pH 7.4
Assay type: physicochemical
Express it in µg/mL; write the number only.

**Q:** What does the record list as solubility for Cn1cc(C#N)c2ccc(NC(=O)NOCc3ccccc3)cc21 ?
**A:** 4

**Q:** What does the data say about its solubility? Entry: O=C(NOCc1ccccc1)Nc1ccc2c(-c3ccncc3)c[nH]c2c1
**A:** 3.2

// data source = ChEMBL document CHEMBL1147021
